These entries and their values trace back to patent US12485132B2.

# Test system: senescent HEPG2 cells
# assay_text: Senescence assay: viability of senescent HEPG2 cells
# Format: cell-based
# stated_conditions: Homo sapiens, 24-72 hours incubation, viability by CellTiter-Glo or XTT, read-out: Absolute IC50 average HEPG2_SEN IC50
pIC50: −log10 of the molar value.
measurement_name: pIC50

Completed entries (count: 2):
Identify the measured pIC50 of "C#CC(F)(F)[C@]1(O)CC[C@H]2[C@@H]3CCC4=CC(=NNC(=O)NC5CC5)CCC4=C3[C@H](c3ccc(C4CC4)cc3)C[C@@]21C" for senescent HEPG2 cells.
8.00 to 10.00

Same question, C#CC(F)(F)[C@]1(O)CC[C@H]2[C@@H]3CCC4=CC(=NOCCOCCOCCOCCNC(=O)CCCCC5SCC6NC(=O)NC65)CCC4=C3[C@@H](c3ccc(C4CC4)cc3)C[C@@]21C (stereo partly shown) this time
8.00 to 10.00

More entries:
Identify the measured pIC50 of "C#CC(F)(F)[C@]1(O)CC[C@H]2[C@@H]3CCC4=C/C(=N/OCCN5CCOCC5)CCC4=C3[C@@H](c3ccc(C4CC4)cc3)C[C@@]21C" for senescent HEPG2 cells.
8.00 to 10.00

Same question, "C#CC(F)(F)[C@]1(O)CC[C@H]2[C@@H]3CCC4=C/C(=N/NC(=O)COC)CCC4=C3[C@H](c3ccc(C4CC4)cc3)C[C@@]21C" this time
8.00 to 10.00

Same question, "C#CC(F)(F)[C@]1(O)CC[C@H]2[C@@H]3CCC4=C/C(=N/NC(=O)OCC)CCC4=C3[C@H](c3ccc(C4CC4)cc3)C[C@@]21C" this time
8.00 to 10.00

Same question, "C#CC(F)(F)[C@]1(O)CC[C@H]2[C@@H]3CCC4=CC(=NOCC)CCC4=C3[C@@H](c3ccc(C4CC4)cc3)C[C@@]21C" this time
7.00 to 8.00

Same question, "C#CC(F)(F)[C@]1(O)CC[C@H]2[C@@H]3CCC4=C/C(=N/NC(=O)O[C@@H]5O[C@@H](C)[C@@H](O)[C@@H](O)[C@@H]5O)CCC4=C3[C@H](c3ccc(C4CC4)cc3)C[C@@]21C" this time
7.00 to 8.00

Same question, C#CC(F)(F)[C@]1(O)CC[C@H]2[C@@H]3CCC4=C/C(=N/NS(C)(=O)=O)CCC4=C3C(c3ccc(C4CC4)cc3)C[C@@]21C (stereo partly shown) this time
8.00 to 10.00

Same question, "C#CC(F)(F)[C@]1(O)CC[C@H]2[C@@H]3CCC4=C/C(=N/O[C@@H]5O[C@@H](C)[C@@H](O)[C@@H](O)[C@@H]5O)CCC4=C3[C@@H](c3ccc(C4CC4)cc3)C[C@@]21C" this time
8.00 to 10.00

Same question, "C#CC(F)(F)[C@]1(O)CC[C@H]2[C@@H]3CCC4=C/C(=N/NS(=O)(=O)C5CC5)CCC4=C3[C@H](c3ccc(C4CC4)cc3)C[C@@]21C" this time
8.00 to 10.00

Same question, "C#CC(F)(F)[C@]1(O)CC[C@H]2[C@@H]3CCC4=C/C(=N\OCCOCCO)CCC4=C3[C@@H](c3ccc(C4CC4)cc3)C[C@@]21C" this time
8.00 to 10.00

Same question, "C#CC(F)(F)[C@]1(O)CC[C@H]2[C@@H]3CCC4=C/C(=N/NC(=O)NCC5CC5)CCC4=C3[C@H](c3ccc(C4CC4)cc3)C[C@@]21C" this time
8.00 to 10.00
